Test system: HDQ-P1
protocol.details: drug sensitivity score (DSS), CellTox Green (DSS (AUC-based score)); higher = stronger drug effect (viability inhibition or cytotoxicity); extreme values may be limits of the assay
particulars: incubation time: 72 h
readout.kind: drug sensitivity score
Give the figure by itself; no unit, no explanation.

Example entries and their recorded answers appear below.
O=C(/C=C/c1cccc(S(=O)(=O)Nc2ccccc2)c1)NO [Belinostat] : 0
S=P(N1CC1)(N1CC1)N1CC1 [Thio-TEPA] : 0
O=P1(N(CCCl)CCCl)NCCCO1 (centres undefined) [Cyclophosphamide] : 0

Record `CCn1c(-c2nonc2N)nc2cnc(Oc3cccc(NC(=O)c4ccc(OCCN5CCOCC5)cc4)c3)cc21` , field drug sensitivity score: 0

Record COc1cc2c(NC3CCN(C(C)C)CC3)nc(N3CCC(F)(F)CC3)nc2cc1OCCCN1CCCC1 [UNC0642] , field drug sensitivity score: 0

Record CCc1c2c(nc3ccc(OC(=O)N4CCC(N5CCCCC5)CC4)cc13)-c1cc3c(c(=O)n1C2)COC(=O)[C@]3(O)CC [Irinotecan] , field drug sensitivity score: 0

Record CO[C@H]1C[C@@H]2CC[C@@H](C)[C@@](O)(O2)C(=O)C(=O)N2CCCC[C@H]2C(=O)O[C@H]([C@H](C)C[C@@H]2CC[C@@H](OP(C)(C)=O)[C@H](OC)C2)CC(=O)[C@H](C)/C=C(\C)[C@@H](O)[C@@H](OC)C(=O)[C@H](C)C[C@H](C)/C=C/C=C/C=C/1C [Ridaforolimus] , field drug sensitivity score: 12.6

Record COc1cc2/c(=N/c3ccc(Br)cc3F)nc[nH]c2cc1OCC1CCN(C)CC1 [Vandetanib] , field drug sensitivity score: 1.32

Record COC(=O)c1ccc2c(c1)NC(=O)/C2=C(\Nc1ccc(N(C)C(=O)CN2CCN(C)CC2)cc1)c1ccccc1 [Nintedanib] , field drug sensitivity score: 0

Recorded values, source the supplement of paper PMC4862054.
